target-under-test: T1, mouse GLP-1 receptor (mouse, UniProt O35659 22-463)
T1 sequence (looked up): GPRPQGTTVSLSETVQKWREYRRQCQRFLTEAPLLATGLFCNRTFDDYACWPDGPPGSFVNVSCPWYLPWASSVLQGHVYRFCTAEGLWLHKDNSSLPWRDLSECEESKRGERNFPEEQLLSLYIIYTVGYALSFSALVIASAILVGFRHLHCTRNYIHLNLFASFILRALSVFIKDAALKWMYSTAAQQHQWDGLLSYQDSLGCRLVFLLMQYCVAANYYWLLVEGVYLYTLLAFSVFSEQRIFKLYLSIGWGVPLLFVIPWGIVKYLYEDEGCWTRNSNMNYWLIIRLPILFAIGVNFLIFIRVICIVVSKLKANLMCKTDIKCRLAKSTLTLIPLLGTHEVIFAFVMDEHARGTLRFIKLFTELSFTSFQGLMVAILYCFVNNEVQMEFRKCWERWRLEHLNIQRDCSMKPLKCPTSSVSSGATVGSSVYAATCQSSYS
method-description: cell-based or functional assay
No end group written: not given here.
Give measured Relative Activity (cAMP synthesis, EC50 relative to GLP-1 = 1) for each item. Keep answers brief.

// for each binder in input: emit Relative Activity (cAMP synthesis, EC50 relative to GLP-1 = 1)
1. HAEGC(disialo oligosaccharide)FTSDVSSYLEGQAAKEFIAWLVKGRG [11Cys GLP-1-disialo]
2. HAEGTFTSDVSSYLEGQAAKEFIAWC(disialo oligosaccharide)VKGRG [32Cys GLP-1-disialo]
3. HC(disialo oligosaccharide)EGTFTSDVSSYLEGQAAKEFIAWLVKGRG [8Cys GLP-1-disialo]

Outgoing:
< 0.1 relative (GLP-1 = 1)
< 0.1 relative (GLP-1 = 1)
< 0.1 relative (GLP-1 = 1)

Entry source: patent US20130345129A1
